Molecular target: T1, GST-DLG1 PDZ domain 2 (Homo sapiens), Q12959
T1 chain: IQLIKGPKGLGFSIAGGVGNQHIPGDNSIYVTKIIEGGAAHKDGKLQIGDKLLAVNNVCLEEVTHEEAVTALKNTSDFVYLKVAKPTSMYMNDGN
Assay: G assay titration, PDZ 0.3 ug/ml
EXPERIMENTAL ENDPOINT: Kd (nM)

>>> experimental_result("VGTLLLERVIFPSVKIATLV (modifications not checked) [AdenoE4 typ9]")
30

The measurements presented in this section are drawn from patent US20050282743A1.
